Where do the numbers come from? From ChEMBL document CHEMBL5338818.

testProtocol: Metabolic stability in rat liver microsomes assessed as intrinsic clearance at 100 uM incubated for 60 mins in presence of NADPH by LC-MS/MS analysis
Assay type: ADME, Microsome
runConditions: read-out: CLH
measurementLabel: microsomal CLint at 100 µM
Just so you know, I need the unit written after the number.

State the recorded microsomal CLint at 100 µM for this entry: Cc1cc(Nc2nc(NCc3ccc(F)cc3F)nc3c2cnn3C2CCN(C(=O)C3CCN(c4ccc5c(c4)C(=O)N(C4CCC(=O)NC4=O)C5=O)CC3)CC2)n[nH]1 (stereo unspecified)
20.9 µL/min/mg

====

testedSystem: UniProt P11712
Sequence (P11712 whole entry): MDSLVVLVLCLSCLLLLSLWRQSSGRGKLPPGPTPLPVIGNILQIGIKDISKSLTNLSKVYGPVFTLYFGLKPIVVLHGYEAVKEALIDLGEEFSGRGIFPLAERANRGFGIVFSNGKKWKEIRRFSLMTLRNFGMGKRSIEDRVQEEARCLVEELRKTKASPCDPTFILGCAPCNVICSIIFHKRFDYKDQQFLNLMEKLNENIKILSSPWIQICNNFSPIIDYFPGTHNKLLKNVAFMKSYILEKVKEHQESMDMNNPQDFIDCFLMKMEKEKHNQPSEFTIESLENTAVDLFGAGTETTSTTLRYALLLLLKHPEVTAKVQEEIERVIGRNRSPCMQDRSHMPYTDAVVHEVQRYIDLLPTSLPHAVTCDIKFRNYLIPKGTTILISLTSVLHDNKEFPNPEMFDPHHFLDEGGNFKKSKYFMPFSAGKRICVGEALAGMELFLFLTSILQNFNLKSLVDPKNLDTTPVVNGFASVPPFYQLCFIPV
testProtocol: Inhibition of CYP2C9 in human liver microsomes at 10 uM using sulfaphenazole as substrate preincubated for 10 mins followed by NADPH regenerating system addition and measured after 15 mins by LC-MS/MS analysis relative to control
Format: ADME, Microsome
runConditions: time 25 min
measurementLabel: inhibition at 0.25 h, 10 µM (%)
Numbers only here, please. The scale is %.

Given the entry Cc1cc(Nc2nc(NCc3ccc(F)cc3F)nc3c2cnn3C2CCN(C(=O)C3CCN(c4ccc5c(c4)C(=O)N(C4CCC(=O)NC4=O)C5=O)CC3)CC2)n[nH]1 (stereo unspecified) , report its measured inhibition at 0.25 h, 10 µM.
32.5
